Attribution: patent US20090136448A1

Parameter IC50: see the listing below.
- Tested on: HCV replication, genotype 1a (Huh-7 HCV replicon cell)
- Assay text: Replicon ELISA cell based assay, genotype 1a
- Recorded conditions: Hepatitis C virus, Huh-7 HCV replicon cells, 72 hours, mean, assayed at least twice

{"Molecule": "CC(C)N(c1cc(-c2ccccc2)sc1C(=O)O)C(=O)[C@H]1CC[C@H](C)CC1 [Compound A, reference compound]", "IC50": "1000 to 5000 nM"}
{"Molecule": "CC(C)N(c1cc(-c2ccc(-c3cc4cc(N)ccc4o3)cc2)sc1C(=O)O)C(=O)[C@H]1CC[C@H](C)CC1", "IC50": "100 to 500 nM"}
{"Molecule": "CC(C)N(c1cc(-c2ccc(-c3cc4cccc(O)c4o3)cc2)sc1C(=O)O)C(=O)[C@H]1CC[C@H](C)CC1", "IC50": "< 5 nM"}
{"Molecule": "CC(C)N(c1cc(-c2ccc(-c3cn4ccsc4n3)cc2)sc1C(=O)O)C(=O)[C@H]1CC[C@H](C)CC1", "IC50": "50 to 100 nM"}
